System: MS2 coat protein
Assay summary: apparent Kd, MS2 coat protein; higher = weaker binding; RNA-MaP array; FMN 200 µM where present
Measurement setup: ligand present: flavin mononucleotide; designed as: OFF switch for flavin mononucleotide
Result type: apparent Kd (nM)
Respond with the bare value in nM.

A selection of reference data follows.
| Sequence text | Result type | Recorded measurement |
| --- | --- | --- |
| CUGACGAUGUAAGGAUAUGCUGAGGAUAACUCAGCAGAAGGUACAUGAGGAUCACCCAUGUAAUAAGAUCAAUAAUAACGUCAG | apparent Kd | 32.1 |
| AAAUUUUGUCAAGGAUAUGUAUAAAAGAGUUGAAAACAUGAGGAUCACCCAUGUAUAUGGUGGGAACAGAAGGUGAAUAAGUAA | apparent Kd | 182 |
| UGAUAGGACAGAGGAUAUACGUGCUAGAGAUACUAGCAAAAUUAAAUAACAUGAGGAUCACCCAUGUAGAAGGCUGUCCUAUCU | apparent Kd | 7.01 |
| UUUUUGUGAGGAUAUGCGUAGUAGAACAAUAGUACUACUACGUAGAAGGCACAUGAGGAUCACCCAUGUUCCUC | apparent Kd | 254 |
| ACUGGUGCAGGAUAUGCAAUCGUGCUUCGGCACGUAAGAUCACAUGAGGAUCACCCAUGUAGAAGGGCACCAGU | apparent Kd | 65.7 |
| CCGAAUAUGCAGGAUAUCGUAUCGGAGACGAUACGAGAAGGGCAAACAUGAGGAUCACCCAUGUUCCUUAACGG | apparent Kd | 22.5 |

Now consider the entry below.
Prompt line: Provide value of apparent Kd for this record tested with MS2 coat protein: GGAUGAGAAACUCAUCCAAUACGAACAUGAGGAUCACCCAUGUAGGAUAUGCUACUCAAAGAGUAGCAGAAGGACAUGUGUCUU
Response line: 159
